Measured EC50 of individual entries
molecular target: T1, human VEGFA165 (human, UniProt P15692-4 27-191); assay: ELISA, coated human VEGFA165, anti-His detection
T1 construct: Bought protein from two suppliers, treated as one molecule; the supplier is named under assay; also called antigen VEGFA
T1 sequence (P15692 other isoform, or with tags, fused parts or gaps limits assumed): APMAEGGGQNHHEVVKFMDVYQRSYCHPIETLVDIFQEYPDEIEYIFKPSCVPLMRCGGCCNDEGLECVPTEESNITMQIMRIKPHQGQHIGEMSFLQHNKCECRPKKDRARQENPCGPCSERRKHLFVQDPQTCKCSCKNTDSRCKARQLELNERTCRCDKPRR
Numeric only. Scale: nM

1) V1 (VHH, Monovalent nanobody; tag not described here, the ELISA detects a His tag) VHH: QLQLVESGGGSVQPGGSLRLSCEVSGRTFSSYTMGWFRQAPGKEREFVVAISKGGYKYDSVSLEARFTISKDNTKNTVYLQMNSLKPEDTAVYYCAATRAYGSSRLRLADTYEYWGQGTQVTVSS :: 0.52

Req: I'd like to know its EC50. The binder in question is 2V31-9GS (VHH, Tandem bivalent nanobody) QLQLVESGGGSVQPGGSLRLSCEVSGRTFASYTMGWFRQAPGKEREFVVAISKGGYKYDAVSLEARFTISKDNTKNTVYLQMNSLKPEDTAVYYCAGTRAYGSSRLRLAKTYEYWGQGTQVTVSSGGGGSGGGSQLQLVESGGGSVQPGGSLRLSCEVSGRTFASYTMGWFRQAPGKEREFVVAISKGGYKYDAVSLEARFTISKDNTKNTVYLQMNSLKPEDTAVYYCAGTRAYGSSRLRLAKTYEYWGQGTQVTVSS
Resp: 0.31
